system: Vesicular stomatitis virus; assay: Antiviral activity against VSV in human HEL cells assessed as protection against virus-induced cytopathicity; assay type: functional, organism-based
pEC50: −log10 of the molar value.
Below, each of the molecules is paired with its reported pEC50 value.

Here's what some known entries look like.
Cc1cc(C)cc(S(=O)(=O)c2c(C(=O)NC(C)CS(N)(=O)=O)[nH]c3ccc(Cl)c(F)c23)c1 (centres undefined) : < 5.40
Cc1cc(C)cc(S(=O)(=O)c2c(C(=O)NCC(N)=O)[nH]c3ccc(Cl)c(F)c23)c1 : < 4.70
Cc1cc(C)cc(S(=O)(=O)c2c(C(N)=O)[nH]c3ccc(Cl)cc23)c1 : < 4.00

## Input Fill in the blank: the reported pEC50 of "Cc1cc(C)cc(S(=O)(=O)c2c(C(=O)NCCC(N)=O)[nH]c3ccc([N+](=O)[O-])cc23)c1" is ____.
## Output < 4.70

###

pEC50: recorded values
system: Influenza A virus; assay: Antiviral activity against influenza H1N1 virus in MDCK cells assessed as reduction of virus-induced cytopathicity by visual cytopathic effect scoring method; type: functional, organism-based
pEC50: −log10 of the molar value.

Illustrative cases are given below, each with its answer.
NC12CC3CC(CC(C3)C1)C2 [AMANTADINE] : < 4.00
Cc1cc(C)cc(S(=O)(=O)c2c(C(=O)NC(C)CS(N)(=O)=O)[nH]c3ccc([N+](=O)[O-])cc23)c1 (centres undefined) : < 5.40

## Input Look up pEC50: Cc1cc(C)cc(S(=O)(=O)c2c(C(=O)NC(C)C(N)=O)[nH]c3ccc(Cl)c(F)c23)c1 (centres undefined)
## Output < 5.40

## Input Next entry: Cc1cc(C)cc(S(=O)(=O)c2c(C(=O)NC(C)C(N)=O)[nH]c3ccc([N+](=O)[O-])cc23)c1 (centres undefined)
## Output < 4.70

## Input And for "Cc1cc(C)cc(S(=O)(=O)c2c(C(=O)NCC(N)=O)[nH]c3ccc(Cl)cc23)c1" ?
## Output < 5.40

## Input Proceed to "Cc1cc(C)cc(S(=O)(=O)c2c(C(=O)NCCC(N)=O)[nH]c3ccc(Cl)c(F)c23)c1"
## Output < 4.70

## Input How about "Cc1cc(C)cc(S(=O)(=O)c2c(C(=O)NCCS(N)(=O)=O)[nH]c3ccc(Br)cc23)c1" ?
## Output < 3.10

## Input What do you have for CC(N)C12CC3CC(CC(C3)C1)C2 (centres undefined) [RIMANTADINE] ?
## Output 4.35

## Input Repeat for the following compound: Cc1cc(C)cc(S(=O)(=O)c2c(C(=O)NC(C)C(N)=O)[nH]c3ccc(Cl)cc23)c1 (centres undefined)
## Output < 5.40

###

experiment: Cytotoxicity against african green monkey Vero cells assessed as drug level causing microscopically detectable alteration of normal cell morphology after 3 days; assay type: cell-based; settings: chlorocebus sabaeus
Measure name: MCC at 72 h

Here are 7 molecules together with their reported answers.
Cc1cc(C)cc(S(=O)(=O)c2c(C(=O)NC(C)C(N)=O)[nH]c3ccc([N+](=O)[O-])cc23)c1 (stereo not drawn) : > 100 µM
Cc1cc(C)cc(S(=O)(=O)c2c(C(=O)NC(C)CS(N)(=O)=O)[nH]c3ccc(Cl)cc23)c1 (stereo not drawn) : ≥ 20 µM
Nc1ncnc2c1ncn2C[C@H](O)CO [(S)-DHPA] : > 250 µM
Cc1cc(C)cc(S(=O)(=O)c2c(C(=O)NCCS(N)(=O)=O)[nH]c3ccc(Br)cc23)c1 : ≥ 20 µM
Cc1cc(C)cc(S(=O)(=O)c2c(C(=O)NC(C)CS(N)(=O)=O)[nH]c3ccc([N+](=O)[O-])cc23)c1 (stereo not drawn) : ≥ 20 µM
Cc1cc(C)cc(S(=O)(=O)c2c(C(=O)NC(C)CS(N)(=O)=O)[nH]c3ccc(Br)cc23)c1 (stereo not drawn) : ≥ 20 µM
Cc1cc(C)cc(S(=O)(=O)c2c(C(=O)NC(C)C(N)=O)[nH]c3ccc(Cl)c(F)c23)c1 (stereo not drawn) : 100 µM

Consider the record given below.
## Input Give its MCC at 72 h value. Item: Cc1cc(C)cc(S(=O)(=O)c2c(C(=O)NC(C)CC(N)=O)[nH]c3ccc([N+](=O)[O-])cc23)c1 (stereo not drawn)
## Output 100 µM

###

The reader will find reported pEC50 values listed item by item below.
system: Human respirovirus 3; test: Antiviral activity against Parainfluenza virus type 3 in african green monkey Vero cells assessed as protection against virus-induced cytopathicity; format: functional, organism-based; conditions: Human respirovirus 3, Vero
pEC50: −log10 of the molar value.

# annotated cases, reported pEC50 shown
Cc1cc(C)cc(S(=O)(=O)c2c(C(=O)NCC(N)=O)[nH]c3ccc(Cl)cc23)c1 : < 4.00
Cc1cc(C)cc(S(=O)(=O)c2c(C(=O)NC(C)C(N)=O)[nH]c3ccc(Br)cc23)c1 (stereo not given) : < 5.40
Cc1cc(C)cc(S(=O)(=O)c2c(C(=O)NNC(C)C)[nH]c3ccc(Cl)cc23)c1 : < 4.00
Cc1cc(C)cc(S(=O)(=O)c2c(C(=O)NC(C)C(N)=O)[nH]c3ccc(Cl)c(F)c23)c1 (stereo not given) : < 4.70
Cc1cc(C)cc(S(=O)(=O)c2c(C(=O)NC(C)CC(N)=O)[nH]c3ccc(Br)cc23)c1 (stereo not given) : < 4.70
Cc1cc(C)cc(S(=O)(=O)c2c(C(=O)NC(C)CC(N)=O)[nH]c3ccc(Cl)c(F)c23)c1 (stereo not given) : < 4.70
Cc1cc(C)cc(S(=O)(=O)c2c(C(=O)NCCS(N)(=O)=O)[nH]c3ccc(Br)cc23)c1 : < 4.70
Cc1cc(C)cc(S(=O)(=O)c2c(C(N)=O)[nH]c3ccc(Cl)c(F)c23)c1 : < 4.00

## Input Recorded pEC50 for "Cc1cc(C)cc(S(=O)(=O)c2c(C(=O)NCCC(N)=O)[nH]c3ccc([N+](=O)[O-])cc23)c1" , please?
## Output < 4.00

## Input // repeat for Cc1cc(C)cc(S(=O)(=O)c2c(C(=O)NC(C)CC(N)=O)[nH]c3ccc([N+](=O)[O-])cc23)c1 (stereo not given) and report
## Output < 4.70

## Input Repeat with "Cc1cc(C)cc(S(=O)(=O)c2c(C(=O)NCCS(N)(=O)=O)[nH]c3ccc(Cl)c(F)c23)c1"
## Output < 4.70

## Input Repeat with "Cc1cc(C)cc(S(=O)(=O)c2c(C(=O)NCCS(N)(=O)=O)[nH]c3ccc([N+](=O)[O-])cc23)c1"
## Output < 4.70

## Input Check Cc1cc(C)cc(S(=O)(=O)c2c(C(=O)NC(C)C(N)=O)[nH]c3ccc([N+](=O)[O-])cc23)c1 (stereo not given) too.
## Output < 4.00

## Input Try this molecule next: "Cc1cc(C)cc(S(=O)(=O)c2c(C(=O)NCCC(N)=O)[nH]c3ccc(Cl)c(F)c23)c1"
## Output < 4.70

## Input Same question for Cc1cc(C)cc(S(=O)(=O)c2c(C(=O)NC(C)CS(N)(=O)=O)[nH]c3ccc(Cl)c(F)c23)c1 (stereo not given) please.
## Output < 4.70

## Input Next molecule up: "NC(=O)c1ncn([C@@H]2O[C@H](CO)[C@@H](O)[C@H]2O)n1"
## Output < 4.30

###

pEC50 for assorted molecules
system: Influenza A virus H3N2; assay: Antiviral activity against influenza H3N2 virus in MDCK cells assessed as reduction of virus-induced cytopathicity by visual cytopathic effect scoring method; format: functional, organism-based
pEC50: −log10 of the molar value.

Cc1cc(C)cc(S(=O)(=O)c2c(C(=O)NC(C)C(N)=O)[nH]c3ccc(Cl)c(F)c23)c1 (stereo not given) : < 5.40
Cc1cc(C)cc(S(=O)(=O)c2c(C(=O)NC(C)CS(N)(=O)=O)[nH]c3ccc(Br)cc23)c1 (stereo not given) : < 3.10
CC(N)C12CC3CC(CC(C3)C1)C2 (stereo not given) : < 4.00
Cc1cc(C)cc(S(=O)(=O)c2c(C(=O)NC(C)C(N)=O)[nH]c3ccc([N+](=O)[O-])cc23)c1 (stereo not given) : < 4.70
Cc1cc(C)cc(S(=O)(=O)c2c(C(=O)NC(C)CC(N)=O)[nH]c3ccc([N+](=O)[O-])cc23)c1 (stereo not given) : < 5.40

## Input Checklist item: pEC50 tested on Influenza A virus H3N2, entry "Cc1cc(C)cc(S(=O)(=O)c2c(C(=O)NCCS(N)(=O)=O)[nH]c3ccc(Cl)c(F)c23)c1" , value?
## Output < 5.40

## Input Again, but for "NC12CC3CC(CC(C3)C1)C2"
## Output 4.00

## Input Can you check Cc1cc(C)cc(S(=O)(=O)c2c(C(=O)NC(C)C(N)=O)[nH]c3ccc(Cl)cc23)c1 (stereo not given) next?
## Output < 5.40

## Input Now the same for "Cc1cc(C)cc(S(=O)(=O)c2c(C(=O)NCCC(N)=O)[nH]c3ccc(Cl)cc23)c1"
## Output < 5.40

## Input Here is the next molecule: "Cc1cc(C)cc(S(=O)(=O)c2c(C(=O)NCCC(N)=O)[nH]c3ccc(Cl)c(F)c23)c1"
## Output < 4.70

## Input Similarly, "Cc1cc(C)cc(S(=O)(=O)c2c(C(N)=O)[nH]c3ccc(Cl)c(F)c23)c1" ?
## Output < 5.40

## Input What do you get for "Cc1cc(C)cc(S(=O)(=O)c2c(C(=O)NCCS(N)(=O)=O)[nH]c3ccc([N+](=O)[O-])cc23)c1" ?
## Output < 5.40

## Input Input Cc1cc(C)cc(S(=O)(=O)c2c(C(=O)NC(C)CS(N)(=O)=O)[nH]c3ccc(Cl)cc23)c1 (stereo not given)
## Output < 5.40

## Input Again, but for Cc1cc(C)cc(S(=O)(=O)c2c(C(=O)NC(C)CS(N)(=O)=O)[nH]c3ccc(Cl)c(F)c23)c1 (stereo not given)
## Output < 5.40

## Input What do you have for "Cc1cc(C)cc(S(=O)(=O)c2c(C(=O)NCC(N)=O)[nH]c3ccc(Cl)c(F)c23)c1" ?
## Output < 5.40
